- measured-on: PDE4D (Homo sapiens, UniProt Q08499)
- Sequence (Q08499 whole entry): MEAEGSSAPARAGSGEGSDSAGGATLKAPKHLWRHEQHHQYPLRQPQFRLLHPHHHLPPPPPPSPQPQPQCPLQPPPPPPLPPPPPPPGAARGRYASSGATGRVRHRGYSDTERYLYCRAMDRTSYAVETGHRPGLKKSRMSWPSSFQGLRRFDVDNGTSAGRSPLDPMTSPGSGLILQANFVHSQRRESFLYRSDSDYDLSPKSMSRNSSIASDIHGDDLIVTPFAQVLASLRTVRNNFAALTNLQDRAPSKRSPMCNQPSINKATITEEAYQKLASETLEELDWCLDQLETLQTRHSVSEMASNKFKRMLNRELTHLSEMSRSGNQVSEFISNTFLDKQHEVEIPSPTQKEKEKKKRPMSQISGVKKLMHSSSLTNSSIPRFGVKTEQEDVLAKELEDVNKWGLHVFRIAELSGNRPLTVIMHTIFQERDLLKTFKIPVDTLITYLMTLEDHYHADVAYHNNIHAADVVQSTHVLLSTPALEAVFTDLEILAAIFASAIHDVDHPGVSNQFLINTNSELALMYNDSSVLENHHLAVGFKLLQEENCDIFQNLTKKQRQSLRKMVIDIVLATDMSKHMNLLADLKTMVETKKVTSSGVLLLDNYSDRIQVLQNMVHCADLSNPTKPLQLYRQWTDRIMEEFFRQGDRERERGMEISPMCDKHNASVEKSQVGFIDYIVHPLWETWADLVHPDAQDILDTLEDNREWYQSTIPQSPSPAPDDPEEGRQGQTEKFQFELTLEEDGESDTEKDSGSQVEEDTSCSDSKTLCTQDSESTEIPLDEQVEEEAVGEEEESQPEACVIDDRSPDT
pIC50: −log10 of the molar value.
measure: pIC50

INSERT INTO assay_data (smiles_string, measure, result) VALUES
  ('COc1cc(-c2ccccc2)c(OC)c(O)c1-c1ccc2c(c1)C=CC(C)(C)O2', 'pIC50', 5.26);

Hello, the source for this data is paper PMC9696254, in case you need it.
